Ref: patent US10501451B2

Molecular target: NR2B-subtype NMDA receptors (Rattus norvegicus (Rat), UniProt P35439+Q00960)
Sequence (Q00960 27-1482, other chains not shown): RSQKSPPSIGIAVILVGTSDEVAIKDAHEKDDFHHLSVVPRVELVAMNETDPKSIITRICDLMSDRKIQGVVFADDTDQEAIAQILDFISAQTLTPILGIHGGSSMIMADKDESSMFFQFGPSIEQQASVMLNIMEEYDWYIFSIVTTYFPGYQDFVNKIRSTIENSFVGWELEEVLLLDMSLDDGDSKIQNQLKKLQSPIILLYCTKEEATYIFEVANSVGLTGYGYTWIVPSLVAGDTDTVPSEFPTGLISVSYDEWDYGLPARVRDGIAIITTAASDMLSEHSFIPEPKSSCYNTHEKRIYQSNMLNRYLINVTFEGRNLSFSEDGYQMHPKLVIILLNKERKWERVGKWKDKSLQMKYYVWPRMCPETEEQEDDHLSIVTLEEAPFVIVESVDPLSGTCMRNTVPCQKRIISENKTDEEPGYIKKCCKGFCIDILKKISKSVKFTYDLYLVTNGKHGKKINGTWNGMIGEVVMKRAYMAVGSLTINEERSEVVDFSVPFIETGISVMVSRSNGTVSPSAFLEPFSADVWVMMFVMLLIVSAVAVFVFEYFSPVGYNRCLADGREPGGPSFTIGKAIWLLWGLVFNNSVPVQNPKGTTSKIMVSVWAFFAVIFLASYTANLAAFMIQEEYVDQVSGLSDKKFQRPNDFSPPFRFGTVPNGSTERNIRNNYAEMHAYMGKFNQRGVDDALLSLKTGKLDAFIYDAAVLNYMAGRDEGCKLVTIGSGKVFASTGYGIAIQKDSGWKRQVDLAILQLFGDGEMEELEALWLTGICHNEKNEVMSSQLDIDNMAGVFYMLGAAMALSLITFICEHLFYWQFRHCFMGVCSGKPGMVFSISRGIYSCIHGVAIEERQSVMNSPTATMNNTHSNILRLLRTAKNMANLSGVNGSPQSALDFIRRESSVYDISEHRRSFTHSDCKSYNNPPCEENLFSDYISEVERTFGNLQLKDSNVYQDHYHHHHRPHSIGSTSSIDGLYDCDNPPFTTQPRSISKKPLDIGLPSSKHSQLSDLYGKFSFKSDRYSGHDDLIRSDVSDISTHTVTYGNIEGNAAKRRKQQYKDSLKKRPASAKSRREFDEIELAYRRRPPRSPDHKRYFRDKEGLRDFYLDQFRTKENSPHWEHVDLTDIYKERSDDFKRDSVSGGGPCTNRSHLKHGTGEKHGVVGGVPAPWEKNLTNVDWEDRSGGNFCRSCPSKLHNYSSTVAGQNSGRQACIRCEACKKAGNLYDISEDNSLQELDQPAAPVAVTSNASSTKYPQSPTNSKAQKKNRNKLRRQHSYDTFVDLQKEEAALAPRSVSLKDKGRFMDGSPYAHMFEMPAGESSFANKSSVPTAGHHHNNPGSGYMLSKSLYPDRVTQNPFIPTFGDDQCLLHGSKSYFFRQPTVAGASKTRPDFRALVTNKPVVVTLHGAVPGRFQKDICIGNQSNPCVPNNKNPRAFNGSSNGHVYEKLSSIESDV
Test: Radioligand binding assay (3H Ro 25-6981 competition, rat forebrain membranes)
Conditions: 3H Ro 25-6981 (4 nM), listed as 7, P-2, read-out: NR2B Binding Ki
metric-name: Ki (nM)
Report the value in nM with no unit label.

Given Cc1ccc(CN2OCCC(N3CC[C@H](c4ccc(O)cc4)[C@@H](F)C3)C2=O)cc1 (single isomer, unassigned) [Example 7, P-2] , state its recorded Ki.
4.98

====

Target: NR2B-subtype NMDA receptors (Rattus norvegicus (Rat), UniProt P35439+Q00960)
Assay: Radioligand binding assay (3H Ro 25-6981 competition, rat forebrain membranes)
Details: 3H Ro 25-6981 (4 nM), listed as 13, P-2, read-out: NR2B Binding Ki
metric-name: Ki
Lab note: write values as number then unit, every time.

For the molecule O=C1C(N2CCC(c3ccc(O)c(F)c3)C(F)C2)CCON1Cc1ccc(F)cc1 (single isomer, unassigned) , what Ki is on record?
4.03 nM
